Reported viability, T/C by item:
System: DU-145 multicell spheroids with HUVEC/MSC, viability
Experiment: Anticancer human tumor DU-145 cell line growth inhibition [IpAb];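 also: spheroids exposed to agents for seven days before measurement; percent of DMSO vehicle control viability so 100% = untreated level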
Conditions: second compound 0.316 µM; first compound 0.00949 µM; active compounds read low

Worked set:
| MOLECULE | TESTED SYSTEM | viability, T/C |
| --- | --- | --- |
| CC(=O)c1c(C)c2cnc(Nc3ccc(N4CCNCC4)cn3)nc2n(C2CCCC2)c1=O + CC(C)NCC(C(=O)N1CCN(c2ncnc3c2C(C)CC3O)CC1)c1ccc(Cl)cc1 | DU-145 multicell spheroids with HUVEC/MSC, viability | 52.2% |
| Cn1cnc2c(F)c(Nc3ccc(Br)cc3Cl)c(C(=O)NOCCO)cc21 + CCN1CCN(Cc2ccc(Nc3ncc(F)c(-c4cc(F)c5nc(C)n(C(C)C)c5c4)n3)nc2)CC1 | DU-145 multicell spheroids with HUVEC/MSC, viability | 61.5% |
| CC(=O)c1c(C)c2cnc(Nc3ccc(N4CCNCC4)cn3)nc2n(C2CCCC2)c1=O + CCN1CCN(Cc2ccc(Nc3ncc(F)c(-c4cc(F)c5nc(C)n(C(C)C)c5c4)n3)nc2)CC1 | DU-145 multicell spheroids with HUVEC/MSC, viability | 75.5% |

Please give the documented viability, T/C of Cn1cnc2c(F)c(Nc3ccc(Br)cc3Cl)c(C(=O)NOCCO)cc21 + CC(C)NCC(C(=O)N1CCN(c2ncnc3c2C(C)CC3O)CC1)c1ccc(Cl)cc1
44.7%

Report viability, T/C for CC(C)(C)c1cnc(CSc2cnc(NC(=O)C3CCNCC3)s2)o1 + CCN1CCN(Cc2ccc(Nc3ncc(F)c(-c4cc(F)c5nc(C)n(C(C)C)c5c4)n3)nc2)CC1
77.5%

Identify measured viability, T/C corresponding to CC(C)(C)c1cnc(CSc2cnc(NC(=O)C3CCNCC3)s2)o1 + CC(C)NCC(C(=O)N1CCN(c2ncnc3c2C(C)CC3O)CC1)c1ccc(Cl)cc1
60.1%

Reference for the values: PubChem BioAssay AID2060335
